Numbers sourced from paper PMC5681660.

Attribute: B-score functional assay
# target under test: human NTCP (Homo sapiens)
# measurement description: Screening taurocholate uptake assay (96-well, [14C]taurocholate, 10 µM drug)
# test settings: screening taurocholate uptake, 10 µM drug
Where a name gives a salt, the structure may show the parent alone.
When you answer, write just the number.

compound	B-score functional assay
CN1C(C(=O)Nc2ccccn2)=C(O)c2sccc2S1(=O)=O	0.141
CNc1ncnc2c1ncn2[C@@H]1O[C@H](CO)[C@@H](O)[C@H]1O	0.107
C#C[C@]1(O)CC[C@H]2[C@@H]3CCc4cc(O)ccc4[C@H]3CC[C@@]21C	-1.799
C[C@]12CC[C@@H]3c4ccc(OC(=O)N(CCCl)CCCl)cc4CC[C@H]3[C@@H]1CC[C@@H]2O	-1.527

Query :: Given CCNCC(O)c1cccc(O)c1 (stereo not shown) [Etilefrine hydrochloride] , state its recorded B-score functional assay.
Result :: -0.021

Query :: Given C[N+]1(C)CCCC(OC(=O)C(O)(c2ccccc2)c2ccccc2)C1 (stereo not shown) [Mepenzolate bromide] , state its recorded B-score functional assay.
Result :: 1.196

Query :: Given C[C@H](CCC(=O)O)[C@H]1CC[C@H]2[C@@H]3[C@@H](O)C[C@@H]4C[C@H](O)CC[C@]4(C)[C@H]3CC[C@]12C , state its recorded B-score functional assay.
Result :: -4.542

Query :: Given CN(CCOc1ccc(NS(C)(=O)=O)cc1)CCc1ccc(NS(C)(=O)=O)cc1 [Dofetilide] , state its recorded B-score functional assay.
Result :: -0.213

Query :: Given CN1[C@@H]2CC[C@H]1C[C@@H](OC(c1ccccc1)c1ccccc1)C2 [Benztropine mesylate] , state its recorded B-score functional assay.
Result :: -0.008

Query :: Given CN(CCCN1c2ccccc2CCc2ccccc21)CC(=O)c1ccc(Cl)cc1 , state its recorded B-score functional assay.
Result :: 0.81

Query :: Given CS(=O)(=O)c1ccc(C2=C(c3ccccc3)C(=O)OC2)cc1 , state its recorded B-score functional assay.
Result :: 1.027

Query :: Given CC(=O)O[C@H]1C[C@@]2(C)[C@@H](C[C@@H](O)[C@H]3[C@@]4(C)CC[C@@H](O)[C@@H](C)[C@@H]4CC[C@@]32C)/C1=C(\CCC=C(C)C)C(=O)O [Fusidic acid sodium salt] , state its recorded B-score functional assay.
Result :: -0.548

Query :: Given CN1CCC(OC(c2ccccc2)c2ccccc2)CC1 [Diphenylpyraline hydrochloride] , state its recorded B-score functional assay.
Result :: -0.425

Query :: Given C[C@H](N)[C@H](O)c1cccc(O)c1 [Metaraminol bitartrate] , state its recorded B-score functional assay.
Result :: 0.952

====

Attribute: Ranking score
# target under test: human NTCP (Homo sapiens, UniProt Q14973)
# measurement description: Screening taurocholate uptake assay (96-well, [14C]taurocholate, 10 µM drug)
# test settings: ranking over the functional and the binding screening assay
Counter-ions that a name gives are not always drawn.
When you answer, write just the number.

molecule	target under test	reported measurement
CNCCc1ccccn1.CS(=O)(=O)O.CS(=O)(=O)O [Betahistine mesylate]	human NTCP (Homo sapiens, UniProt Q14973)	145.348
Nc1ccc(S(=O)(=O)c2ccc(N)cc2)cc1	human NTCP (Homo sapiens, UniProt Q14973)	186.888
O=C(Nc1ccc([N+](=O)[O-])cc1Cl)c1cc(Cl)ccc1O [Niclosamide]	human NTCP (Homo sapiens, UniProt Q14973)	178.326
C=C1c2cccc(O)c2C(=O)C2=C(O)[C@]3(O)C(=O)C(C(N)=O)=C(O)[C@@H](N(C)C)[C@@H]3[C@@H](O)[C@H]12 [Methacycline hydrochloride]	human NTCP (Homo sapiens, UniProt Q14973)	244.434
COc1ccc(-c2ccc(=N)n(CCCC(=O)O)n2)cc1 [Gabazine bromide]	human NTCP (Homo sapiens, UniProt Q14973)	269.035

Query :: Given COc1ccc(C(=O)CC(=O)c2ccc(C(C)(C)C)cc2)cc1 , state its recorded Ranking score.
Result :: 206.26

Query :: Given C=CC1=C(C(=O)O)N2C(=O)[C@@H](NC(=O)/C(=N\OCC(=O)O)c3csc(N)n3)[C@H]2SC1 , state its recorded Ranking score.
Result :: 185.952

Query :: Given C[C@H](O)C(=O)Nc1c(I)c(C(=O)NC(CO)CO)c(I)c(C(=O)NC(CO)CO)c1I , state its recorded Ranking score.
Result :: 105.925

Query :: Given O=C([O-])c1ccccc1-c1c2cc(Br)c(=O)cc-2oc2[c]([Hg+])c([O-])c(Br)cc12.[Na+].[Na+].[OH-] , state its recorded Ranking score.
Result :: 82.365

Query :: Given Nc1nc2[nH]cc(CCc3ccc(C(=O)N[C@@H](CCC(=O)O)C(=O)O)cc3)c2c(=O)[nH]1 [Pemetrexed disodium] , state its recorded Ranking score.
Result :: 234.359

Query :: Given O=C1[C@H](CC[C@H](O)c2ccc(F)cc2)[C@@H](c2ccc(O)cc2)N1c1ccc(F)cc1 [ezetimibe, reference compound] , state its recorded Ranking score.
Result :: 30.4959

====

Attribute: B-score functional assay
# target under test: human NTCP (Homo sapiens, UniProt Q14973)
# Sequence (Q14973 1-349): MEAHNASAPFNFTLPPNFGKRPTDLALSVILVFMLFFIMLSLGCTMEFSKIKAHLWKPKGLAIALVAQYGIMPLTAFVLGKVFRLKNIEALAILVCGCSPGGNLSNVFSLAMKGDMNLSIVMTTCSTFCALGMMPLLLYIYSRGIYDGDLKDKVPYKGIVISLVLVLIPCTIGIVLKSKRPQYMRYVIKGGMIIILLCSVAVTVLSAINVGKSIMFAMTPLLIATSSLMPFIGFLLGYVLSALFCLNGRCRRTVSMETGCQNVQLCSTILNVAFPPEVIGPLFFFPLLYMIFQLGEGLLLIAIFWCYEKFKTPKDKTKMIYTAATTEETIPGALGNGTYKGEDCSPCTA
# measurement description: Screening taurocholate uptake assay (96-well, [14C]taurocholate, 10 µM drug)
# test settings: screen, 10 µM drug, taurocholate uptake
Where a name gives a salt, the structure may show the parent alone.
When you answer, write just the number.

compound	target under test	B-score functional assay
CCCNC(C)C(=O)Nc1ccccc1C (centres unmarked) [Prilocaine hydrochloride]	human NTCP (Homo sapiens, UniProt Q14973)	0.027
CC(C)(Oc1ccc(CCNC(=O)c2ccc(Cl)cc2)cc1)C(=O)O [Bezafibrate]	human NTCP (Homo sapiens, UniProt Q14973)	-1.123
O=C(NCC1CCCCN1)c1cc(OCC(F)(F)F)ccc1OCC(F)(F)F (centres unmarked) [Flecainide acetate]	human NTCP (Homo sapiens, UniProt Q14973)	-1.076
CN[C@H]1CC[C@@H](c2ccc(Cl)c(Cl)c2)c2ccccc21	human NTCP (Homo sapiens, UniProt Q14973)	0.805
CC(Oc1ccccc1)C(=O)N[C@@H]1C(=O)N2[C@@H]1SC(C)(C)[C@@H]2C(=O)[O-].[K+] (some centres unmarked) [Phenethicillin potassium salt]	human NTCP (Homo sapiens, UniProt Q14973)	-0.676
CN(C)CCC(c1ccccc1)c1ccccn1 (centres unmarked) [Pheniramine maleate]	human NTCP (Homo sapiens, UniProt Q14973)	-0.685
C[N+]1(C)[C@@H]2CC[C@H]1C[C@@H](OC(=O)C(CO)c1ccccc1)C2 (some centres unmarked) [Methylatropine nitrate]	human NTCP (Homo sapiens, UniProt Q14973)	-0.076

Turning to the following compound.
Query :: Given OC(CCCN1CCCCC1)(c1ccccc1)c1ccccc1 [Diphenidol hydrochloride] , state its recorded B-score functional assay.
Result :: -1.4

====

# target under test: human NTCP (Homo sapiens, UniProt Q14973)
# measurement description: Screening fluorescent competitive Myrcludex B-FITC binding assay (96-well, 10 µM drug)
# test settings: screen, 10 µM drug, Myrcludex B-FITC binding
Counter-ions that a name gives are not always drawn.
measurement name: B-score binding assay
When you answer, write just the number.

molecule	target under test	B-score binding assay
CCOc1ccc2c(c1)C(C)=CC(C)(C)N2	human NTCP (Homo sapiens, UniProt Q14973)	-1.217
CC(=O)OCC(=O)[C@@]12N=C(C)O[C@@H]1C[C@H]1[C@@H]3CCC4=CC(=O)C=C[C@]4(C)[C@H]3[C@@H](O)C[C@@]12C	human NTCP (Homo sapiens, UniProt Q14973)	-0.898
CNC1(C)C2CCC(C2)C1(C)C (centres unmarked) [Mecamylamine hydrochloride]	human NTCP (Homo sapiens, UniProt Q14973)	-0.663
Nc1ccn([C@@H]2CS[C@H](CO)O2)c(=O)n1	human NTCP (Homo sapiens, UniProt Q14973)	-1.334
C[C@]12CCC(=O)C=C1C=C[C@@H]1[C@@H]2CC[C@@]2(C)[C@H]1CC[C@@]21CCC(=O)O1	human NTCP (Homo sapiens, UniProt Q14973)	-0.43

Query :: Write down the reported B-score binding assay of Cl.O=c1[nH]oc2c1CCNC2 [THIP Hydrochloride] , test system: human NTCP (Homo sapiens, UniProt Q14973).
Result :: -1.136

Query :: Write down the reported B-score binding assay of COc1ccc([C@@H]2Sc3ccccc3N(CCN(C)C)C(=O)[C@@H]2OC(C)=O)cc1 [Diltiazem hydrochloride] , test system: human NTCP (Homo sapiens, UniProt Q14973).
Result :: -0.608

Query :: Write down the reported B-score binding assay of C[C@H](CCC(=O)O)[C@H]1CC[C@H]2[C@@H]3C(=O)C[C@@H]4CC(=O)CC[C@]4(C)[C@H]3CC(=O)[C@]12C [Dehydrocholic acid] , test system: human NTCP (Homo sapiens, UniProt Q14973).
Result :: -0.083
